The reported measurements were obtained from patent US10517889B2.

# System: human SMAD7 mRNA
# Assay name: Antisense inhibition of human SMAD7 mRNA expression in Hep3B cells by 3-10-3 cEt gapmers, 10,000 nM, electroporation (Example 2)
# Format: cell-based
# Assay setup: SMAD7 mRNA, Hep3B cells, electroporation with 10,000 nM antisense oligonucleotide, approximately 24 hours, primer probe set RTS5062, relative to untreated control cells
Strand notation (5' to 3'): a small letter for the sugar, then the base; units joined by * are phosphorothioate-linked, units joined directly phosphodiester-linked; [ ] holds rarer units or linkages, { } end groups; capitals alone tell only the bases. k = constrained ethyl (cEt); [5mC] = 5-methylcytosine; d = 2'-deoxy (DNA)
// Condition not met strictly below 40% in % Inhibition; Condition met otherwise

Take a look at these entries with their results.
829869 (antisense k[5mC]*kA*kG*dT*dG*dT*dG*dG*d[5mC]*dG*dG*dA*d[5mC]*kT*kT*kG) [compound 829869]
Condition not met
829991 (kA*kG*kG*dG*d[5mC]*d[5mC]*dG*d[5mC]*dG*dA*dG*dG*d[5mC]*kG*kG*kT; antisense) [compound 829991]
Condition not met
829904 (antisense kG*k[5mC]*kT*dG*dT*dT*dG*dA*dA*dG*dA*dT*dG*kA*k[5mC]*k[5mC]) [compound 829904]
Condition not met
829923 (kA*kG*kT*dA*dT*d[5mC]*dA*dT*dA*d[5mC]*dG*dA*dG*kT*kG*kT; antisense) [compound 829923]
Condition met

Does the reported % Inhibition for 830009 (antisense kG*kT*kG*dT*dT*dA*dA*dA*dG*d[5mC]*dT*dG*dA*kG*k[5mC]*k[5mC]) [compound 830009] fall at or above the 40% mark?
Condition met

Could you please find out whether 829798 (kG*kG*kG*dT*dT*dG*dA*dT*d[5mC]*dT*dT*d[5mC]*d[5mC]*k[5mC]*kG*kT; antisense) [compound 829798] has % Inhibition that meets 40% or exceeds it?
Condition not met
